biological target: MERS-CoV S S1 subunit (MERS-S1) (MERS-CoV EMC isolate, UniProt K9N5Q8 19-748); test: ForteBio Octet kinetic measurement (FIG. 3A)
Each entry below carries its recorded Kd.

binder	Kd
5.11h8 (antibody, V domains shown) VH: QVQLVQSGAEVKKPGSSVKVSCKASGGAFSAYAIDWVRQAPGQGLEWMGGIIPIFGTAHYAQKLQGRVTITADKSTSTAYMELSSLRSEDTAVYYCAREGDSGLVLAARGFFDYWGQGTLVTVSS VL: DIQMTQSPSSLSASVGDRVTITCRASQGISNYLAWYQQKPGKVPKLLIYAASTLQSGVPSRFSGSGSGTDFTLTISSLQPEDVATYYCQKYNSAPWTFGQGTKVEIKR	~0.68 nM
5.2b7 (antibody, V domains shown) VH: QVQLVESGGGVVQPGRSLRLSCAASGFTFSSDGMHWVRQAPGKGLEWVAVIWFDGSNKYYADSVKGRFTISRDNSKNTMYLQMNSLRAEDTAVYYCTRDRGITMGRGRYYYYYGMDVWGQGTTVTVSS VL: EIVMTQSPATLSVSPGERATLSCRASQSVGSNLAWYQQKPGQAPRLLIYGASTRATGIPARFSGSGSGTEFTLTISSLQSEDFAVYYCQQYNNWPLTFGGGTKVEMKR	~0.36 nM

Looking up 1.6e1 (antibody, V domains shown) VH: QVQLVQSGAEVKKPGSSVKVSCKASGGAFSAYAISWVRQAPGQGLEWMGGIIPIFGTANYAQKFQGRVTITADTSTSTAYMELSSLRSEDTAVYYCAREGDIEVVLAARGFFDYWGQGTLVTVSS VL: DIQMTQSPSSLSASVGDRVTITCRASQGISNYLAWYQQKPGKVPKLLIYAASTLQSGVPSRFSGSGSGTDFTLTISSLQPEDVATYYCQKYNSAPWTFGQGTKVEIKR , I found its Kd recorded as ~0.11 nM

Looking up 7.5d3 (antibody, V domains shown) VH: QVQLVESGGGVVQPGRSLRLSCAATGFTFSYYGMHWVRQAPGKGLEWVAVIWFDGTNIYYADSVRGRFTISRDNSKNTLYLQMNSLRAEDSAVYYCARDRRSSDWYVVFDYWGQGTLVTVSS VL: DIQLTQSPSFLSASVGDRVTITCRASQGISSYLAWYQQKPGKAPKLLIYAASTLQSGVPSRFSGSGSGTEFTLTISSLQPEDFATYYCQQLNSYPWTFGQGTKVEIKR , I found its Kd recorded as ~6 nM
